// provenance: patent US6545033B1

Biological target: Mouse Brain GABA Receptors
Assay: In vitro assay of binding to mouse brain GABA receptors (3H-EBOB displacement, mouse brain membranes)
Conditions: displacement of 5.2 nM 3H-EBOB, about 45 min at about 24° C.
compounds and their reported IC50
Numbers only here, please. The scale is nM.

IC50 for CC1(O)c2cn(-c3c(Cl)cc(C(F)(F)F)cc3Cl)nc2CC1F (stereo not drawn) ?
25000

IC50 for CC1(O)c2cn(-c3c(Cl)cc(C(F)(F)F)cc3Cl)nc2CC1(F)F (stereo not drawn) ?
2300

IC50 for FC(F)(F)c1cc(Cl)c(-n2cc3c(n2)CCC3)c(Cl)c1 ?
1600
